target: BTB domain of BCL6 / SMRT BBD peptide (Homo sapiens); construct: Thioredoxin-His6-STag-TEV-biotinylation-thrombin-BCL6 amino acids 1-129; assay: BCL6-BTB - SMRT peptide inhibition fluorescence polarization (FP) screen; settings: 1.25 uM BCL6-BTB, 20 nM Bodipy-TMR SMRT peptide probe; lower limit of assay 1 uM
pIC50: −log10 of the molar value.
experimental.readout: pIC50

[[record]]
compound = "[2H]C([2H])([2H])NC(=O)C([2H])([2H])Oc1cc2cc(Nc3nc(N4C[C@@H](C)C(F)(F)[C@@H](C)C4)ncc3Cl)ccc2n(C)c1=O [Ib]"
target_of_assay = "BTB domain of BCL6 / SMRT BBD peptide (Homo sapiens)"
endpoint_result = "≥ 6.05"


Enquiry: I would be grateful if you could share the reported pIC50 for [2H]C([2H])([2H])NC(=O)C([2H])([2H])Oc1cc2cc(Nc3nc(N4C[C@H](C)C[C@H](C)C4)ncc3Cl)ccc2n(C)c1=O [Example Ia] .
Return: ≥ 6.00
